Values compiled from patent US20090155164A1.

# System name: human c-fms, full length, on cells (human, UniProt P07333 20-972)
# Sequence (P07333 20-972): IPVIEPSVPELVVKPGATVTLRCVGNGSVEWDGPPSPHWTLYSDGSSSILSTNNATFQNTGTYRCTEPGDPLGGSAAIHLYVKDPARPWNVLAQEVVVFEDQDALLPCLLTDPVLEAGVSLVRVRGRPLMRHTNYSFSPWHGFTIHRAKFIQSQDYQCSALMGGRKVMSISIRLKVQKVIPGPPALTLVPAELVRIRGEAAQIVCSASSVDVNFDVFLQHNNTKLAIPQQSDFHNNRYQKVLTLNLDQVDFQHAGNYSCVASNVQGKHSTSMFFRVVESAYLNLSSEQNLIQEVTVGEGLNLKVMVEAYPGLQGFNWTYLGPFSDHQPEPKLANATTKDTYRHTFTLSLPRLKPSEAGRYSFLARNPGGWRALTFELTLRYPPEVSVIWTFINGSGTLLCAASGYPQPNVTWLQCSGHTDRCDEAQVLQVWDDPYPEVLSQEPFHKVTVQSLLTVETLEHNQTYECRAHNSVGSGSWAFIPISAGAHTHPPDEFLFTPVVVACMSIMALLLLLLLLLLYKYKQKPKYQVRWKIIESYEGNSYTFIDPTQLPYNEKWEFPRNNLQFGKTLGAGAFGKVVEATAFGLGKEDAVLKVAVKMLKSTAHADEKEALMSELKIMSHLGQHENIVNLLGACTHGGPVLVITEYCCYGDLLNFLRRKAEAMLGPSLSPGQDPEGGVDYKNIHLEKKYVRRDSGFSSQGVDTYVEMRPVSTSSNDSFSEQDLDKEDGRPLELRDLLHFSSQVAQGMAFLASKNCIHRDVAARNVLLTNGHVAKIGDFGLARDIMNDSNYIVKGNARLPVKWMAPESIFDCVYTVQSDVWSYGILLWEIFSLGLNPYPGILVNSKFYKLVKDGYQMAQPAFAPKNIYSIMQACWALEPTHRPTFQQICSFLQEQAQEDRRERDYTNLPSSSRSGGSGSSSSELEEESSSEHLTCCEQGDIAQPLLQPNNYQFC
# Run description: cell-based or functional assay
Measured Human CD14+ monocytes bioassay IC50 by item
Your answer should be a plain number; it is taken to be in nM.

Example binders with recorded Human CD14+ monocytes bioassay IC50:
anti-c-fms hybridoma antibody 2.475 (antibody, IgG2, V domains shown, Hybridoma IgG2 (cohort 2); also called 2.475.2) VH: QVQLVESGGGVVQPGRSLRLSCAASGFTFISYGMHWVRQAPGKGLEWVAVIWYDGSNKYYADSVKGRFTISRDNSKNTLYLQMNSLRAEDTAVYYCADSSGDYYGMDVWGQGTTVTVSS VL: DIQMIQSPSSLSASVGDRVTITCQASHDISNYLNWYQQKPGKAPKFLISDASNLETGVPSRFSGSGSGTDFTFTISSLQPEDIATYYCQQYDNLPLTFGGGTKVEIK = 0.067
anti-c-fms hybridoma antibody 2.534 (antibody, IgG2, V domains shown, Hybridoma IgG2 (cohort 2); also called 2.534.1; 2.534.2) VH: QVQLQESGPGLVKPSQTLSLTCTVSGGSISSGGYYWSWIRQHPGKGLEWIGYISYSGDTYYNPSLKSRLTISVDTSKHQFSLRLSSVTSADTAVYYCASLDLYGDYFDYWGQGTLVTVSS VL: EIVLTQSPDFQSVTPKEKVTITCRASQYIGSSLHWYQQTPDQSPKLLINYVSQSFSGVPSRFSGSGSGTDFTLTINSLEAEDAATYYCHQSSSLPFTFGPGTKVDIK = 0.047

# context switch: different binder, same Human CD14+ monocytes bioassay IC50
Inquiry: Can you look up the measured Human CD14+ monocytes bioassay IC50 of anti-c-fms hybridoma antibody 2.360 (antibody, IgG2, V domains shown, Hybridoma IgG2 (cohort 2)) VH: QVQLVQSGAEVKKPGASVKVSCKVSGYTLTELSMHWVRQAPGKGLEWMGGFDPEDGETIYAQKFQGRVTMTEDTSTDTVYMELSSLRSEDTAVYYCATGVMITFGGVIVGHSYYGMDVWGQGTTVTVSS VL: DIQMTQSPSSLSASVGDRVTITCRASQGINNYLAWYQQKPGKVPQLLIYVASTLQSGVPSRFSGSGSGTDFTLTISSLQPEDVATYYCQKYNSGPFTFGPGTKVDIK for me?
Reply text: 0.067
